biological target: HEK293 Galpha15/GCaMP6s without NPYLR7, calcium fluorescence; assay: nonspecific activation in parental Galpha15/GCaMP6s cells – cell-based, HEK293 lacking NPYLR7, counter-screen for mosquito NPYLR7 agonist project, dose response (AID 1259426);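 note: potency for a rise in fluorescence over baseline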
Calls of active or inactive are those of the source.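 Rule for the calls: active = EC50 under a set limit in control cells lacking the mosquito receptor, marking a fluorescence artifact; inactive = the rest.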
Classes used: 1 (yes) (active), 0 (no) (inactive)

INSERT INTO assay_data (compound, label_class) VALUES
  ('N#CC(C#N)=C1C=C2C=C(N3CCN(Cc4ccccc4)CC3)CCC2CC1 (stereo not drawn)', '0 (no)'),
  ('FC(F)(F)c1cc(-c2cccs2)nc2ncnn12', '1 (yes)'),
  ('O=C(CC1SC(=O)NC1=O)Oc1ccc(/C=C2\SC(=O)NC2=S)cc1 (stereo not drawn)', '1 (yes)'),
  ('CCN1CCc2c(sc(NC(=O)COc3ccccc3)c2-c2nc3ccccc3s2)C1', '0 (no)'),
  ('CCN1CCN(Cc2c(O)cc(C)c3c2O/C(=C\c2ccco2)C3=O)CC1', '1 (yes)'),
  ('O=C1SC(Nc2ccc(I)cc2)C(=O)N1c1ccccc1 (stereo not drawn)', '1 (yes)'),
  ('COc1ccc(C2=NN(C(=O)CN3CCOCC3)C(c3nc4ccccc4[nH]3)C2)cc1 (stereo not drawn)', '0 (no)'),
  ('COc1ccccc1OCCCOc1ccc(Br)cc1Cl', '0 (no)'),
  ('CCOc1ccc2nc3cc(N)ccc3c(N)c2c1', '1 (yes)'),
  ('CCCN1CCc2c(sc3c2c(NC(CC)CO)nc2nnnn23)C1 (stereo not drawn)', '0 (no)'),
  ('O=c1[nH]c(SCCO)nc2sc3c(c12)CCCC3', '0 (no)'),
  ('COc1cc(OC)c(C2=NOC3(CC(=O)N(c4cccc(Cl)c4)C3=O)C2)cc1OC (stereo not drawn)', '0 (no)'),
  ('COc1ccc(S(=O)(=O)NCC2CCCN(C(=O)CSc3ccccc3)C2)cc1 (stereo not drawn)', '0 (no)'),
  ('CCN(CC)C1=CC2=CC(=C(C#N)C#N)CCC2CC1 (stereo not drawn)', '1 (yes)'),
  ('Cc1cc(O)c(CN2CCN(C)CC2)c2c1C(=O)/C(=C/c1cccs1)O2', '1 (yes)'),
  ('O=C1c2ccccc2-c2nn(CN3CCN(c4ccccc4)CC3)c3cccc1c23', '0 (no)'),
  ('CC(C)NC(=O)C(C)N1CCc2onc(-c3ccc(C(F)(F)F)cc3)c2C1 (stereo not drawn)', '1 (yes)'),
  ('CCOC(=O)N1CCN(c2ccc(/C=C(\C#N)c3nc4ccccc4n3C)o2)CC1', '0 (no)'),
  ('CCC(C)[n+]1c(C)cc(C=C2Sc3ccccc3N2C)cc1C (stereo not drawn)', '1 (yes)'),
  ('CCCC1CCC(C(=O)Nc2nnc(SCC)s2)CC1 (stereo not drawn)', '0 (no)'),
  ('COc1ccc(C(C)NS(=O)(=O)c2ccc(Cl)cc2C(F)(F)F)cc1F (stereo not drawn)', '1 (yes)'),
  ('CNC[C@@H](O)c1ccc(O)c(O)c1', '1 (yes)'),
  ('Clc1ccc(-c2noc3c2CN(CCn2cc(Cl)cn2)CC3)cc1', '1 (yes)');

====

target: HEK293 Galpha15/GCaMP6s without NPYLR7, calcium fluorescence; experiment: nonspecific activation in parental Galpha15/GCaMP6s cells – cell-based, HEK293 lacking NPYLR7, counter-screen for mosquito NPYLR7 agonist project, dose response (AID 1259426);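 note: potency for a rise in fluorescence over baseline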
The source made the active and inactive calls.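 The calls were made as follows: active = EC50 under a set limit in control cells lacking the mosquito receptor, marking a fluorescence artifact; inactive = the rest.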
Outcomes: active, inactive

INSERT INTO results (compound, target_desc, label_class) VALUES
  ('O=C(COc1ccccc1)N1CCCC(CNS(=O)(=O)c2cccs2)C1 (stereo not given)', 'HEK293 Galpha15/GCaMP6s without NPYLR7, calcium fluorescence', 'inactive'),
  ('CCCc1ccccc1N1C(=O)CSC1c1ccc(NC(=O)CCl)cc1 (stereo not given)', 'HEK293 Galpha15/GCaMP6s without NPYLR7, calcium fluorescence', 'inactive'),
  ('O=C1NC(c2ccc3c(c2)OCO3)C(C(=O)c2ccccc2)C(O)(C(F)(F)F)N1 (stereo not given)', 'HEK293 Galpha15/GCaMP6s without NPYLR7, calcium fluorescence', 'inactive'),
  ('CN(Cc1cnc2ccccc2n1)C(=O)C1CC2(CCNCC2)CN1 (stereo not given)', 'HEK293 Galpha15/GCaMP6s without NPYLR7, calcium fluorescence', 'inactive'),
  ('COc1ccc2oc(=O)c(-c3nnc(Nc4cc(Cl)ccc4OC)s3)cc2c1', 'HEK293 Galpha15/GCaMP6s without NPYLR7, calcium fluorescence', 'inactive'),
  ('N#CC1C(=N)Oc2cc(N)ccc2C1c1c(Cl)cccc1Cl (stereo not given)', 'HEK293 Galpha15/GCaMP6s without NPYLR7, calcium fluorescence', 'inactive'),
  ('CN1C(=CC=C2C(=O)Oc3ccccc3C2=O)C(C)(C)c2ccccc21', 'HEK293 Galpha15/GCaMP6s without NPYLR7, calcium fluorescence', 'active'),
  ('C(=Cc1ccccc1)C=NNc1ncnc2ccccc12', 'HEK293 Galpha15/GCaMP6s without NPYLR7, calcium fluorescence', 'inactive'),
  ('COCCN=Cc1cc(I)cc(I)c1O', 'HEK293 Galpha15/GCaMP6s without NPYLR7, calcium fluorescence', 'inactive'),
  ('COc1ccc(OC)c(CCNc2nc3cnc(-c4cccc5ccccc45)cc3n2C)c1', 'HEK293 Galpha15/GCaMP6s without NPYLR7, calcium fluorescence', 'inactive'),
  ('N#CC(C#N)=C1C=C2C=C(N3CCCC3)CCC2CC1 (stereo not given)', 'HEK293 Galpha15/GCaMP6s without NPYLR7, calcium fluorescence', 'active'),
  ('COc1ccc(CN2CCN(Cc3cccn3-c3ncccn3)CC2CCO)c(C)c1C (stereo not given)', 'HEK293 Galpha15/GCaMP6s without NPYLR7, calcium fluorescence', 'inactive'),
  ('N#C/C(=C\c1ccc(O)c(O)c1)C(=O)Nc1ccccc1', 'HEK293 Galpha15/GCaMP6s without NPYLR7, calcium fluorescence', 'inactive'),
  ('Nc1nc(Cl)nc2c1ncn2[C@@H]1O[C@H](CO)[C@H](O)C1O (stereo not given in full)', 'HEK293 Galpha15/GCaMP6s without NPYLR7, calcium fluorescence', 'active'),
  ('COCCOc1ccc(NC(=O)N(C)C(C)C2(C)CC2)cn1 (stereo not given)', 'HEK293 Galpha15/GCaMP6s without NPYLR7, calcium fluorescence', 'inactive'),
  ('O=C1CSC(=S)N1N=Cc1cc(Br)c(O)c(Br)c1', 'HEK293 Galpha15/GCaMP6s without NPYLR7, calcium fluorescence', 'active'),
  ('Cc1ccccc1CNc1ncnc2c1ncn2C1OC(CO)C(O)C1O (stereo not given)', 'HEK293 Galpha15/GCaMP6s without NPYLR7, calcium fluorescence', 'active'),
  ('NS(=O)(=O)c1ccc(NC(NC(=O)c2ccco2)C(=O)c2ccc(Cl)cc2)cc1 (stereo not given)', 'HEK293 Galpha15/GCaMP6s without NPYLR7, calcium fluorescence', 'inactive'),
  ('COc1ccc(/C=C2\Oc3c(ccc4c3CN(CC3CCCO3)CO4)C2=O)cc1 (stereo not given)', 'HEK293 Galpha15/GCaMP6s without NPYLR7, calcium fluorescence', 'active'),
  ('CN1C=CC(=C/C=C2/C=Nc3ccccc32)C=C1', 'HEK293 Galpha15/GCaMP6s without NPYLR7, calcium fluorescence', 'active'),
  ('Cc1nc(Sc2nnc3ccccn23)c2c3c(sc2n1)CCCC3', 'HEK293 Galpha15/GCaMP6s without NPYLR7, calcium fluorescence', 'inactive'),
  ('COCCOc1ccc(NS(=O)(=O)c2cn(C)c(Cl)n2)cn1', 'HEK293 Galpha15/GCaMP6s without NPYLR7, calcium fluorescence', 'active'),
  ('O=C1NC(=O)C2=Cc3ccc(O)cc3OC2(O)N1 (stereo not given)', 'HEK293 Galpha15/GCaMP6s without NPYLR7, calcium fluorescence', 'active'),
  ('Nc1ccc(Oc2cc(N)cc(Oc3ccccc3)c2)cc1', 'HEK293 Galpha15/GCaMP6s without NPYLR7, calcium fluorescence', 'active'),
  ('COC(=O)c1cnc(/C=C/c2cc(C)c(O)c(C)c2)s1', 'HEK293 Galpha15/GCaMP6s without NPYLR7, calcium fluorescence', 'inactive'),
  ('O=C1/C(=C/c2ccc3c(c2)OCO3)Oc2c1ccc1c2CN(CC2CCCO2)CO1 (stereo not given)', 'HEK293 Galpha15/GCaMP6s without NPYLR7, calcium fluorescence', 'active'),
  ('CC(C)C(C(=O)O)N1C(=O)/C(=C/c2ccc(N(C)C)cc2)SC1=S (stereo not given)', 'HEK293 Galpha15/GCaMP6s without NPYLR7, calcium fluorescence', 'active'),
  ('CCN1CCc2c(sc(NC(=O)c3ccccc3)c2-c2nc3ccccc3s2)C1', 'HEK293 Galpha15/GCaMP6s without NPYLR7, calcium fluorescence', 'inactive'),
  ('CCN(CC)c1ccc(/C=C2/SC(=S)N(CC(=O)O)C2=O)cc1', 'HEK293 Galpha15/GCaMP6s without NPYLR7, calcium fluorescence', 'active'),
  ('CC(C)(C)c1cnc(CSc2cnc(NC(=O)C3CCNCC3)s2)o1', 'HEK293 Galpha15/GCaMP6s without NPYLR7, calcium fluorescence', 'inactive');
